Cited source for all entries: ChEMBL document CHEMBL1128308

Test system: Rattus norvegicus
Test summary: Antiinflammatory activity by rat adjuvant arthritis assay at 30 mg/kg peroral administration (uninjected paw at day 16).
Cond: route oral
Assignment: determine reported Change for the given molecules.
Respond with a number, then the unit of measure.

Query: Give me measured Change, please, for this molecule: COc1cccc(C(O)c2nc3c(cc2C)CCCCC3)c1 (stereo unspecified)
Reply: -14%

Query: Give me measured Change, please, for this molecule: Cc1cnc2c(c1)CCCC2Sc1ccccc1 (stereo unspecified)
Reply: -27%

Query: Give me measured Change, please, for this molecule: Cc1ccc(/C=C2\c3ncc(C)cc3CCC2(C)C)cc1
Reply: 8%

Query: Give me measured Change, please, for this molecule: Cc1ccnc2c1CCC/C2=C\c1ccncc1
Reply: 3%

Query: Give me measured Change, please, for this molecule: C/C(=C1\CCCc2c(C)ccnc21)c1ccc(C)cc1
Reply: -14%

Query: Give me measured Change, please, for this molecule: Cc1ccc(C(O)c2ccc3c(n2)CCCCC3)cc1 (stereo unspecified)
Reply: -33%
